Target: UniProt P55789
Sequence (P55789 whole entry): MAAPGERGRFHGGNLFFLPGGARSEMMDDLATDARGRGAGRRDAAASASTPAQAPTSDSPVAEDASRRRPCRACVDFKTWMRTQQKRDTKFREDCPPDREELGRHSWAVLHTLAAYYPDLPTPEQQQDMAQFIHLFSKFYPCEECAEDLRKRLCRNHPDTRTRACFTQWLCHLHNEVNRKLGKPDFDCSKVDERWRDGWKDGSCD
Test: ALR-catalysed DTT oxidation blockers – biochemical, H2O2 detection, luminescence, cherry-pick, dose response (AID 493248)
Counter-ions that a name gives are not always drawn. Activity calls are given as the source filed them. No stated cut-off is given here; in the data, actives have a measured AC50 and inactives only a lower limit.
Thanks in advance; please answer with one of these: active, inactive

Exam item: Given NCCc1ccc(O)c(O)c1 [DOPAMINE HYDROCHLORIDE] , state the outcome it received in this test.
Marked response: active

Exam item: Given "Nc1ccc(C(=O)Nc2cccc(N)c2)cc1" , state the outcome it received in this test.
Marked response: active

Exam item: Given "Clc1ccc(-c2nc3cnccn3c2NC2CCCC2)cc1" , state the outcome it received in this test.
Marked response: active

Exam item: Given "O=C(c1ccc2c(c1)OCO2)N1CCN=C1SCc1ccccc1" , state the outcome it received in this test.
Marked response: inactive

Exam item: Given "COc1ccc(Nc2c3c(nc4ccccc24)CCCC3)cc1OC" , state the outcome it received in this test.
Marked response: active

Exam item: Given "O=C(N/N=C/c1ccc(O)c(O)c1)C1c2ccccc2Oc2ccccc21" , state the outcome it received in this test.
Marked response: active

Exam item: Given "COc1ccccc1N1CCN(S(=O)(=O)c2ccccc2)CC1" , state the outcome it received in this test.
Marked response: active

Each recorded value in this set is attributed to ChEMBL document CHEMBL1201862.
